Examples of compounds with documented relative IC50 follow.
- Test system: YST-1
- test details: relative IC50 (inflection point of fitted dose-response curve, CellTiter-Glo viability, 72 h; top asymptote may be below 50% inhibition); higher = less potent
reported property: relative IC50

| compound | assayed target | reported result |
| --- | --- | --- |
| NCC(=O)Nc1ccc(-n2nc(C(F)(F)F)cc2-c2ccc3c(ccc4ccccc43)c2)cc1 | YST-1 | 7.97 µM |
| CN[C@@H]1C[C@H]2O[C@@](C)([C@@H]1OC)n1c3ccccc3c3c4c(c5c6ccccc6n2c5c31)C(=O)N[C@H]4O [UCN-01] | YST-1 | 0.0859 µM |
| C[C@H]1C=C2C(=O)O[C@H]3CC[C@@H](C1)[C@@]23O [Galiellalactone] | YST-1 | 9.96 µM |
| C[C@@]1(C(=O)Nc2ccc(F)nc2)CCCN1c1nc(Nc2cc(C3CC3)n[nH]2)c2cccn2n1 | YST-1 | 0.0182 µM |

---

- System: HSC2
- test details: relative IC50 (inflection point of fitted dose-response curve, CellTox-Green cytotoxicity, 72 h; top asymptote may be below 50%); higher = less potent
Examples of compounds with documented relative IC50 follow.

| compound | relative IC50 |
| --- | --- |
| CO[C@H](C(=O)[C@@H](O)[C@@H](C)O)[C@@H]1Cc2cc3cc(O[C@H]4C[C@@H](O[C@H]5C[C@@H](O)[C@H](O)[C@@H](C)O5)[C@@H](O)[C@@H](C)O4)c(C)c(O)c3c(O)c2C(=O)[C@H]1O[C@H]1C[C@@H](O[C@H]2C[C@@H](O[C@H]3C[C@](C)(O)[C@H](O)[C@@H](C)O3)[C@H](O)[C@@H](C)O2)[C@H](O)[C@@H](C)O1 | 247 nM |
| CCCCC(=O)OCC(=O)[C@]1(O)Cc2c(O)c3c(c(O)c2[C@@H](O[C@H]2C[C@H](NC(=O)C(F)(F)F)[C@H](O)[C@H](C)O2)C1)C(=O)c1c(OC)cccc1C3=O | > 5000 nM |
| COc1cccc2cc(-c3nc([C@H]4CC[C@H](C(=O)O)CC4)n4ncnc(N)c34)[nH]c12 | > 10000 nM |
| CCN(CC)CCCC(C)Nc1c2ccc(Cl)cc2nc2ccc(OC)cc12 (centres undefined) | 1170 nM |
| CO[C@H]1[C@@H](N(C)C(=O)c2ccccc2)C[C@@H]2O[C@@]1(C)n1c3ccccc3c3c4c(c5c6ccccc6n2c5c31)C(=O)NC4 | 243 nM |
| CN(C)C[C@@H]1CCn2cc(c3ccccc32)C2=C(C(=O)NC2=O)c2cn(c3ccccc23)CCO1 | 1880 nM |
| CC1(C)CCC(CN2CCN(c3ccc(C(=O)NS(=O)(=O)c4ccc(NCC5CCOCC5)c([N+](=O)[O-])c4)c(Oc4cnc5[nH]ccc5c4)c3)CC2)=C(c2ccc(Cl)cc2)C1 | > 10000 nM |
| CNC(=O)c1cc(Oc2ccc(NC(=O)Nc3ccc(Cl)c(C(F)(F)F)c3)cc2)ccn1 | > 1000 nM |
| CS(=O)(=O)c1ccc(C(=O)Nc2ccc(Cl)c(-c3ccccn3)c2)c(Cl)c1 | > 10000 nM |
| C#Cc1cccc(Nc2ncnc3cc(OCCOC)c(OCCOC)cc23)c1 | > 10000 nM |
| CO[C@H]1/C=C\C=C(/C)C(=O)NC2=CC(=O)C(NCCN(C)C)=C(C[C@@H](C)C[C@H](OC)[C@H](O)[C@@H](C)/C=C(\C)[C@@H]1OC(N)=O)C2=O | 187 nM |
| CC1(C)CNc2cc(NC(=O)c3cccnc3NCc3ccncc3)ccc21 | > 10000 nM |
| CC(C)C[C@@H](C(=O)N[C@H](C(=O)OC1CCCC1)c1ccccc1)[C@H](O)C(=O)NO | > 10000 nM |
| CNNCc1ccc(C(=O)NC(C)C)cc1 | > 10000 nM |
